Recorded AC50 values (5-hydroxytryptamine receptor 2C (Homo sapiens)) are given below.

COMPOUND	ASSAY_READOUT	MEASUREMENT
CCCCCC(=O)O[C@]1(C(C)=O)CC[C@H]2[C@@H]3CCC4=CC(=O)CC[C@]4(C)[C@H]3CC[C@@]21C [HYDROXYPROGESTERONE CAPROATE]	AC50	> 30 µM
CN1CCN(C2=Nc3ccccc3Oc3ccc(Cl)cc32)CC1	AC50	0.029 µM
CC(C)[C@H](N)C(=O)OCC(CO)OCn1cnc2c(=O)nc(N)[nH]c21 (some centres undefined)	AC50	> 30 µM

Form field: reported AC50 of CN1C(C(=O)Nc2ccccn2)=C(O)c2ccccc2S1(=O)=O
> 30 µM

###

# TARGET: Progesterone receptor (Homo sapiens); also: assay procedure not described here
# Sequence (P06401 whole entry): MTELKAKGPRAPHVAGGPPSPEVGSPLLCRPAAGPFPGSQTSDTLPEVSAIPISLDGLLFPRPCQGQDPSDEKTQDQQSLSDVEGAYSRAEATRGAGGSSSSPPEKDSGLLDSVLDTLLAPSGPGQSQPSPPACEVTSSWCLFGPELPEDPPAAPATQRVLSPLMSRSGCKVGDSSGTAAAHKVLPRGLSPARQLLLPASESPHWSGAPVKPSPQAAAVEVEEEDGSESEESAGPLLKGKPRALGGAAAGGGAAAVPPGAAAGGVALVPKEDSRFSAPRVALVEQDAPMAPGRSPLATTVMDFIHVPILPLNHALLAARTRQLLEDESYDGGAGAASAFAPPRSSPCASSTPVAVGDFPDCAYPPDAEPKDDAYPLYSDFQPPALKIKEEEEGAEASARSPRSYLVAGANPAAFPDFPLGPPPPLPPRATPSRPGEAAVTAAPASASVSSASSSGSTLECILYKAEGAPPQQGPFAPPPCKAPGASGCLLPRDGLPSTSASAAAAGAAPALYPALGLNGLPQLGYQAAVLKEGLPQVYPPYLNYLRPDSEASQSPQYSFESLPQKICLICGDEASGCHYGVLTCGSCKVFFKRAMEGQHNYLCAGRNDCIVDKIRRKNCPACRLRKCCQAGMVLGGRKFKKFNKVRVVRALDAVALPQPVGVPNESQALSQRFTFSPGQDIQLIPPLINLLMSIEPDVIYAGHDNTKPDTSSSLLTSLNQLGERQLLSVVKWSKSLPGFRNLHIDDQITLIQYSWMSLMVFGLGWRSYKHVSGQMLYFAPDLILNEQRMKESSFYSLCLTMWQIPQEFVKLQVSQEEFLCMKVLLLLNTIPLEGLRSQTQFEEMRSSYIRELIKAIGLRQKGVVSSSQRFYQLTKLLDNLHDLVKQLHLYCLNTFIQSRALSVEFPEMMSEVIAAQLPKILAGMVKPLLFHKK
# Format: functional
ASSAY_READOUT: AC50

COMPOUND	MEASUREMENT
CC(C)COCC(CN(Cc1ccccc1)c1ccccc1)N1CCCC1 (centres undefined)	> 30 µM
CCOC(=O)c1cncn1[C@H](C)c1ccccc1 [ETOMIDATE]	> 10 µM
CCCCC1C(=O)N(c2ccccc2)N(c2ccccc2)C1=O	> 10 µM

Shift focus to the following entry.
Tell me the measured AC50 of CC1OC2(CS1)CN1CCC2CC1 (centres undefined) , please.
> 10 µM

###

Provide the reported AC50 of each item.
# TARGET: Growth hormone secretagogue receptor type 1 (Homo sapiens, UniProt Q92847); also: assay procedure not described here
# Sequence (Q92847 whole entry): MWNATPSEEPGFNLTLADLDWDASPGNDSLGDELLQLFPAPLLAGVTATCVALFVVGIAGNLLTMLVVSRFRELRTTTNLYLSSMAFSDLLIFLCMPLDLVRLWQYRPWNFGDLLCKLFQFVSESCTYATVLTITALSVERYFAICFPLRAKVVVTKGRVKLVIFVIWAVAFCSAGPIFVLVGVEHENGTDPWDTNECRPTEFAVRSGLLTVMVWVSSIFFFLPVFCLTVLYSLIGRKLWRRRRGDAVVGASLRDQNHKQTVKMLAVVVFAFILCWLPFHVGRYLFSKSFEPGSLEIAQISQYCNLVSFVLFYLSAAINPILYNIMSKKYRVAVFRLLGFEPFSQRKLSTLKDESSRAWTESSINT

MOLECULE	AC50
CCN1CCN(Cc2ccc(Nc3ncc(F)c(-c4cc(F)c5nc(C)n(C(C)C)c5c4)n3)nc2)CC1 [ABEMACICLIB]	> 30 µM
CCOC(=O)C1=C[C@]2(CC)CCCN3CCc4c(n1c1ccccc41)[C@@H]32 [VINPOCETINE]	> 30 µM
CC(=O)O[C@H](CC(=O)[O-])C[N+](C)(C)C [ACETYLCARNITINE]	> 30 µM
CN(C)CCCNc1c2ccccc2nc2cccc([N+](=O)[O-])c12 [NITRACRINE]	> 30 µM
Cc1cc2cc3c(C)cc(=O)oc3c(C)c2o1 [TRIOXSALEN]	> 10 µM

Please state AC50 for every molecule in the list that follows.
1. CN1CCC(=C2c3ccccc3CCc3cccnc32)CC1 [AZATADINE]
2. CC(C(=O)O)c1ccc(CC2CCCC2=O)cc1 (stereo not given) [LOXOPROFEN]
3. CCOC(=O)C1=C(C)NC(C)=C(C(=O)OC)C1c1cccc([N+](=O)[O-])c1 (stereo not given) [NITRENDIPINE]
4. CCC(=O)O[C@H]1CC[C@H]2[C@@H]3CCC4=CC(=O)CC[C@]4(C)[C@H]3CC[C@]12C [TESTOSTERONE PROPIONATE]

1: > 30 µM; 2: > 30 µM; 3: > 30 µM; 4: > 10 µM

###

# TARGET: Alpha-2A adrenergic receptor (Homo sapiens); also: assay procedure not described here
# Sequence (P08913 whole entry): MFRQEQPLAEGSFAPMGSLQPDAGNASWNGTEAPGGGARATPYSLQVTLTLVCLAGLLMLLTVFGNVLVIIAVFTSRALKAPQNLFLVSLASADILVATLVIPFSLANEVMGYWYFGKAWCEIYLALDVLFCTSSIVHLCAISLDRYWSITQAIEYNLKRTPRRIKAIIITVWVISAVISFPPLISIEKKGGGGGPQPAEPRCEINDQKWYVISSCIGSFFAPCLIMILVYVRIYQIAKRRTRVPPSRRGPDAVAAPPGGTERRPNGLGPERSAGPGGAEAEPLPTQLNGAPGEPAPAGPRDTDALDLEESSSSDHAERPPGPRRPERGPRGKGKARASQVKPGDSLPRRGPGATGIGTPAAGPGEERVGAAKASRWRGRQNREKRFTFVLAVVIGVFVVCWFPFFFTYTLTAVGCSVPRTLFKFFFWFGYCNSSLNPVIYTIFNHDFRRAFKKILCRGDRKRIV
# Format: functional, cell-based
ASSAY_READOUT: AC50

// each listed compound needs a value for AC50
1. COc1cc2nc(N3CCN(C(=O)C4CCCO4)CC3)nc(N)c2cc1OC (stereo not drawn)
2. C[C@H](Cc1cc2c(c(C(N)=O)c1)N(CCCO)CC2)NCCOc1ccccc1OCC(F)(F)F
3. CC(C)COCC(CN(Cc1ccccc1)c1ccccc1)N1CCCC1 (stereo not drawn)
4. CCCCC1C(=O)N(c2ccccc2)N(c2ccccc2)C1=O
5. CC(=O)O[C@H](CC(=O)[O-])C[N+](C)(C)C
6. Clc1ccc(C(Cn2ccnc2)OCc2ccsc2Cl)c(Cl)c1 (stereo not drawn)
7. O=C1C(CC[S+]([O-])c2ccccc2)C(=O)N(c2ccccc2)N1c1ccccc1 (stereo not drawn)

> 30 µM
> 30 µM
> 30 µM
> 10 µM
> 30 µM
> 30 µM
> 30 µM

For every item below, please supply its AC50.
1. CN(C)CCc1c[nH]c2ccc(Cn3cncn3)cc12
2. CC(C(=O)O)c1ccc2c(c1)[nH]c1ccc(Cl)cc12 (stereo not drawn)
3. C=C[C@H]1C[N@@]2CC[C@H]1C[C@@H]2[C@@H](O)c1ccnc2ccc(OC)cc12
4. COc1cc2c(cc1OC)C(CCc1ccc(Cl)cc1)N(C)CC2 (stereo not drawn)
5. CCC(=O)O[C@H]1CC[C@H]2[C@@H]3CCC4=CC(=O)CC[C@]4(C)[C@H]3CC[C@]12C [TESTOSTERONE PROPIONATE]

1. > 30 µM
2. > 10 µM
3. > 10 µM
4. > 10 µM
5. > 10 µM

Hey, quick one: what's AC50 for each of these?
1. C#C[C@]1(O)CC[C@H]2[C@@H]3CCC4=CC(=O)CC[C@@H]4[C@H]3C(=C)C[C@@]21CC
2. CCC(COC(=O)c1cc(OC)c(OC)c(OC)c1)(c1ccccc1)N(C)C (stereo not drawn)
3. CC(=O)N[C@@H](CS)C(=O)O
4. C/C(=C\C(=O)OCCCCCCCCC(=O)O)C[C@@H]1OC[C@H](C[C@@H]2O[C@H]2[C@@H](C)[C@H](C)O)[C@@H](O)[C@H]1O
5. CCCC(CCC)C(=O)O

1. > 30 µM
2. > 30 µM
3. > 30 µM
4. > 10 µM
5. > 10 µM

Could you share which AC50 value was measured for Cc1cc2cc3c(C)cc(=O)oc3c(C)c2o1 ?
> 10 µM

###

Here's what we have: AC50 numbers for Histamine H3 receptor (Homo sapiens).

COMPOUND	TARGET	MEASUREMENT
CCOC(=O)c1cncn1[C@H](C)c1ccccc1 [ETOMIDATE]	Histamine H3 receptor (Homo sapiens)	> 10 µM

For each of the compounds below, state AC50.
1. C#CCOc1ccc(N)cc1C(=O)NCCCC [PARSALMIDE]
2. C/N=C(\NC)NCc1ccccc1
3. CCN1CCCC1CNC(=O)c1cc(S(=O)(=O)CC)c(N)cc1OC (centres undefined) [AMISULPRIDE]
4. OCc1cc(C(O)CNCCCCCCOCCCCc2ccccc2)ccc1O (centres undefined)
5. CCCC(CCC)C(=O)O
6. CC(S)C(=O)NCC(=O)O (centres undefined)
7. Cc1ncc2n1-c1ccc(Cl)cc1C(c1ccccc1F)=NC2

1: > 30 µM; 2: > 30 µM; 3: 12 µM; 4: > 10 µM; 5: > 10 µM; 6: > 30 µM; 7: > 10 µM

Kindly give each listed record's AC50.
1. COc1ccc(-c2noc(CC(=O)O)c2-c2ccc(OC)cc2)cc1
2. CN(C)CCC[C@@]1(c2ccc(F)cc2)OCc2cc(C#N)ccc21
3. C[C@]12CCC(=O)C(O)=C1CC[C@@H]1[C@@H]2CC[C@]2(C)C(=O)CC[C@@H]12
4. OC1(c2ccc(Cl)cc2)c2ccccc2C2=NCCN21 (centres undefined)
5. CN(C)CCc1c[nH]c2ccc(Cn3cncn3)cc12
6. CN1C[C@H](C(=O)N[C@]2(C)O[C@@]3(O)[C@@H]4CCCN4C(=O)[C@H](Cc4ccccc4)N3C2=O)C=C2c3cccc4[nH]cc(c34)C[C@H]21
7. CC(N)C(O)c1ccccc1 (centres undefined)
8. C=C[C@@]1(C)CC(=O)[C@]2(O)[C@@]3(C)[C@@H](O)CCC(C)(C)[C@@H]3[C@H](O)[C@H](OC(C)=O)[C@@]2(C)O1

1: > 30 µM; 2: > 30 µM; 3: > 30 µM; 4: > 30 µM; 5: > 10 µM; 6: > 30 µM; 7: > 10 µM; 8: > 30 µM
